- measurement_description: The drug is tested on Lactobacillus reuteri strain: DSM20016 for biotransformation under anaerobic condition. The drug concentrations were measured over 6 timepoints collected between 0 and 12 hours of incubation by liquid-chromatography-coupled mass spectrometry (LC–MS)
- Assay type: ADME
- Design: dose 5 uM, timepoint 0, 1.5, 3, 6, 9, 12 hours
- condition_details: limosilactobacillus reuteri, 5 µM
property_measured: Bacterial Biotransformation

// worked examples, Bacterial Biotransformation included
molecule: CCCC1O[C@@H]2C[C@H]3[C@@H]4CCC5=CC(=O)C=C[C@]5(C)[C@H]4[C@@H](O)C[C@]3(C)[C@]2(C(=O)CO)O1 (some centres not stated) [BUDESONIDE]
Bacterial Biotransformation: Compound NOT metabolized

molecule: COc1c(C)c2c(c(O)c1C/C=C(\C)CCC(=O)O)C(=O)OC2 [MYCOPHENOLIC ACID]
Bacterial Biotransformation: Compound NOT metabolized

molecule: C[C@H]1C[C@@H]2[C@H]([C@@H](O)C[C@@]3(C)[C@H]2CC[C@]3(O)C(=O)CO)[C@@]2(C)C=CC(=O)C=C12 [METHYLPREDNISOLONE]
Bacterial Biotransformation: Compound NOT metabolized

molecule: C[C@H]1C[C@H]2[C@@H]3CCC4=CC(=O)C=C[C@]4(C)[C@@]3(F)[C@@H](O)C[C@]2(C)[C@@]1(O)C(=O)CO [BETAMETHASONE]
Bacterial Biotransformation: Compound NOT metabolized

Return value of Bacterial Biotransformation for input C=CC[C@@H]1/C=C(\C)C[C@H](C)C[C@H](OC)[C@H]2O[C@@](O)(C(=O)C(=O)N3CCCC[C@H]3C(=O)O[C@H](/C(C)=C/[C@@H]3CC[C@@H](O)[C@H](OC)C3)[C@H](C)[C@@H](O)CC1=O)[C@H](C)C[C@@H]2OC.O [TACROLIMUS] , no commentary.
Compound NOT metabolized

Return value of Bacterial Biotransformation for input COc1c(C)c2c(c(O)c1C/C=C(\C)CCC(=O)OCCN1CCOCC1)C(=O)OC2 [MYCOPHENOLATE MOFETIL] , no commentary.
Compound NOT metabolized

Return value of Bacterial Biotransformation for input C[C@]12CCC(=O)C=C1CC[C@@H]1[C@@H]2[C@@H](O)C[C@@]2(C)[C@H]1CC[C@]2(O)C(=O)CO [HYDROCORTISONE] , no commentary.
Compound NOT metabolized
